# target_of_assay: enzyme I (phosphoenolpyruvate-protein-phosphatase, EC 2.7.3.9) of the bacterial phosphotransferase system (E. coli, UniProt P08839 1-575)
# protocol: cell-based or functional assay
experimental_readout: uncoupling P1/peptide/h (P1/peptide/h)
All answers are understood in P1/peptide/h, so give the number only.

# binder, endpoint_unit, uncoupling P1/peptide/h
records = [
    ("RHITSL [peptide 27]", "P1/peptide/h", 0.215),
    ("RHYLLF [peptide 26]", "P1/peptide/h", 0.29),
    ("RHRTLF [peptide 25]", "P1/peptide/h", 0.23),
    ("SSLRGHRWVY [peptide 17]", "P1/peptide/h", 0.07),
    ("RHITLF [peptide 28]", "P1/peptide/h", 0.31),
]

// moving on: another record for uncoupling P1/peptide/h
Can you share its uncoupling P1/peptide/h? I mean this binder: DGARLHYLF [peptide 22] 0.05
